Catalogue of molecules with associated EC150
Molecular target: Androgen receptor (Homo sapiens) (UniProt P10275)
Sequence (P10275 whole entry): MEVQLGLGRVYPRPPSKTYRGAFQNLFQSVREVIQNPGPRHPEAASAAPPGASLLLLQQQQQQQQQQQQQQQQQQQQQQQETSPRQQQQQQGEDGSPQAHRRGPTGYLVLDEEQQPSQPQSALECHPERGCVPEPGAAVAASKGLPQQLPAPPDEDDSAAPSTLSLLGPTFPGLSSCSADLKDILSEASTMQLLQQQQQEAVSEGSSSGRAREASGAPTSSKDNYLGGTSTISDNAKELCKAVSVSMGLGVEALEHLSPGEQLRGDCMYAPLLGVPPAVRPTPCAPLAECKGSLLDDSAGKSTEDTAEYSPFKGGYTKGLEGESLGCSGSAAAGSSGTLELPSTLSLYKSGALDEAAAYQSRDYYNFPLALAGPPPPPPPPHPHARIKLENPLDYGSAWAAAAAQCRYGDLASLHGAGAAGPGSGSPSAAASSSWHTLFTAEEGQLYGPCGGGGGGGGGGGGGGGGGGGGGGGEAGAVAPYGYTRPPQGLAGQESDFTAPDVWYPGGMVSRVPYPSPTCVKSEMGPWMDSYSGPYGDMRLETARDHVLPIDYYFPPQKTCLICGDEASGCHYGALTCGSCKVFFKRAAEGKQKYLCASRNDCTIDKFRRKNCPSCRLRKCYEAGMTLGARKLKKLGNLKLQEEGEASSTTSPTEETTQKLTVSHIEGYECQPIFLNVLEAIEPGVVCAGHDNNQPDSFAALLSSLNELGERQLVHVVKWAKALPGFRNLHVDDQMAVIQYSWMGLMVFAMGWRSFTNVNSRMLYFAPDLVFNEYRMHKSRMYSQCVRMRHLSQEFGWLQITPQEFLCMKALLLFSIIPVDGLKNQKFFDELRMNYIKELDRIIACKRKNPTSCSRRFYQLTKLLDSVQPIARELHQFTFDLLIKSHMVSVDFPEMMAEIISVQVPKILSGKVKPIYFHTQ
Details: MDA-kb2
Description: Agonist activity at androgen receptor in human MDA-kb2 cells assessed as stimulation of luciferase activity by luciferase reporter gene assay

MOLECULE	UNIT_NAME	EC150
COc1ccc(-c2cc(=O)c3c(O)cc(O)cc3o2)cc1	µM	2.1
O=c1cc(-c2ccccc2)oc2ccc(Cl)cc12	µM	12.6
O=c1cc(-c2ccc(O)c(O)c2)oc2cc(O)cc(O)c12	µM	18
O=C1CC(c2ccccc2)Oc2ccccc21 (stereo not drawn)	µM	380
O=c1cc(-c2ccccc2)oc2ccc(O)cc12 [6-HYDROXYFLAVONE]	µM	7.1
COc1ccc2oc(-c3ccccc3)c(O)c(=O)c2c1	µM	10.3
COc1ccc2c(=O)cc(-c3ccccc3)oc2c1	µM	21.9
O=c1cc(-c2ccccc2)oc2cc(O)c(O)c(O)c12	µM	18.9

---

Biological target: Glucocorticoid receptor (Homo sapiens)
Conditions: MDA-kb2
Description: Agonist activity at glucocorticoid receptor in human MDA-kb2 cells assessed as stimulation of luciferase activity by luciferase reporter gene assay

COMPOUND_SMILES	EC150 [µM]
O=c1c(O)c(-c2ccccc2)oc2ccc(O)cc12	1.54
COc1ccc2c(=O)cc(-c3ccccc3)oc2c1	21.9
O=c1cc(-c2ccc(O)c(O)c2)oc2cc(O)cc(O)c12	18
O=c1c(-c2ccc(O)cc2)coc2cc(O)cc(O)c12	4.4
